Target: KpDnaB helicase (Klebsiella pneumoniae, UniProt A6TGW0 1-471)
Test: EMSA; no flavonol; apparent Kd; 20 mM HEPES pH 7.0, 100 mM NaCl, 25 C, 30 min, 1.7 nM dT30, no Mg2+ or nucleotide stated; native 8% PAGE in TBE at 4 C
QUANTITY KIND: Kd (nM)
# number only, unit nM dropped from output

Task: So what does the record say about Kd for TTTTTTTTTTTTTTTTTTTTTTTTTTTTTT (ssDNA) [dT30] ?
Result: 970

The measured values listed here are drawn from paper PMC3468084.
